FYI, the data here is from ChEMBL document CHEMBL1154729.

Test system: Mycobacterium tuberculosis
experimental details: Antimycobacterial activity against multidrug-resistant Mycobacterium tuberculosis by agar dilution method
Assay type: functional
So basically every entry gets a class from its MIC, ranges being bin 0 (below 2 µM), bin 1 (2 µM to below 4 µM), bin 2 (4 µM or more)

Answered cases to consult:
molecule	target entity	classification
CC[C@@H](CO)NCCN[C@@H](CC)CO [ETHAMBUTOL]	Mycobacterium tuberculosis	bin 2
Cc1ccc2ccc(C(=O)NCC3=C[C@@H]4Oc5ccccc5C(=O)C4=CN3c3ncc(Br)cc3Br)cc2c1	Mycobacterium tuberculosis	bin 0
Cc1cccnc1N1C=C2C(=O)c3ccccc3O[C@H]2C=C1CNC(=O)c1ccc(Cl)cc1	Mycobacterium tuberculosis	bin 1
COc1ccc(C(=O)NCC2=C[C@@H]3Oc4ccccc4C(=O)C3=CN2c2ncccc2C)cc1	Mycobacterium tuberculosis	bin 1
Cc1ccc(C(=O)NCC2=C[C@@H]3Oc4ccccc4C(=O)C3=CN2c2ncccc2C)cc1	Mycobacterium tuberculosis	bin 0

Challenge: Tag the class for O=C(NCC1=C[C@@H]2Oc3ccccc3C(=O)C2=CN1c1ncc(Br)cc1Br)c1cccc(Cl)c1
Response given: bin 1

Challenge: Tag the class for CCc1ccc(C(=O)NCC2=C[C@@H]3Oc4ccccc4C(=O)C3=CN2c2ncccc2C)cc1
Response given: bin 0

Challenge: Tag the class for Cc1ccc2ccc(C(=O)NCC3=C[C@@H]4Oc5ccccc5C(=O)C4=CN3c3ncccc3C)cc2c1
Response given: bin 0

Challenge: Tag the class for Cc1cccnc1N1C=C2C(=O)c3ccccc3O[C@H]2C=C1CNC(=O)c1ccccc1
Response given: bin 1

Challenge: Tag the class for O=C(NCC1=C[C@@H]2Oc3ccccc3C(=O)C2=CN1c1ncc(Br)cc1Br)c1ccc(Cl)cc1
Response given: bin 1

----------
System: Mycobacterium tuberculosis
experimental details: Antimycobacterial activity against multidrug-resistant Mycobacterium tuberculosis by agar dilution method
Format: functional
property label: MIC

molecule	MIC
NNC(=O)c1ccncc1 [ISONIAZID]	45.6 µM
CCc1ccc(C(=O)NCC2=C[C@@H]3Oc4ccccc4C(=O)C3=CN2c2ncc(Br)cc2Br)cc1	1.3 µM
CO[C@H]1/C=C/O[C@@]2(C)Oc3c(C)c(O)c4c(O)c(c(/C=N/N5CCN(C)CC5)c(O)c4c3C2=O)NC(=O)/C(C)=C\C=C\[C@H](C)[C@H](O)[C@@H](C)[C@@H](O)[C@@H](C)[C@H](OC(C)=O)[C@@H]1C [RIFAMPIN]	3.79 µM
Cc1cccnc1N1C=C2C(=O)c3ccccc3O[C@H]2C=C1CNC(=O)c1cccc(Cl)c1	1.7 µM
O=C(NCC1=C[C@@H]2Oc3ccccc3C(=O)C2=CN1c1ncc(Br)cc1Br)c1ccc(Cl)c(Cl)c1	4.91 µM

Challenge: Name the recorded MIC for O=C(NCC1=C[C@@H]2Oc3ccccc3C(=O)C2=CN1c1ncc(Br)cc1Br)c1ccc2ccccc2c1 .
Response given: 5.04 µM

Challenge: Name the recorded MIC for Cc1cccnc1N1C=C2C(=O)c3ccccc3O[C@H]2C=C1CNC(=O)c1ccc2ccccc2c1 .
Response given: 0.42 µM

Challenge: Name the recorded MIC for Cc1cccnc1N1C=C2C(=O)c3ccccc3O[C@H]2C=C1CNC(=O)c1ccc(F)cc1 .
Response given: 7.09 µM
